# Test system: CCRF-CEM
# MEASUREMENT NOTES: CCK-8 proliferation, CCRF-CEM
# Format: cell-based, Human
# EXPERIMENTAL SETUP: Homo sapiens, CCRF-CEM; CCK-8; 96 hours; read-out: Inhibitory activity (IC50) on tumor cell proliferation, CCRF-CEM
# Description: The tumor cells used herein were cultured in a cell culture medium listed in table A1 at 37°C in an incubator with 5% CO2. […] IC50 values of the compounds of the present disclosure (including the compounds in Table 1, and compounds of examples) were measured using the Meilun Cell Counting Kit-8 kit from Dalian Meilun Biotech Co., Ltd. Assay details are as follows: tumor cells were seeded in a 96-well plate at a density listed in Table A2. […]
Kindly state IC50 for each of the entries shown.

A selection of reference data follows.
CC1(C)CCC(c2ccc(Cl)cc2)=C(CN2CCN(c3ccc(C(=O)NS(=O)(=O)c4ccc(N[C@H](CCN5CCN(Cc6ccc(C7CCC(=O)NC7=O)cc6)CC5)CSc5ccccc5)c(S(=O)(=O)C(F)(F)F)c4)cc3)CC2)C1 (stereo partly drawn); < 1 nM
O=C1CCC(c2ccc(CN3CCC(n4cc(NC(=O)c5coc(-c6ccnc(NCC(F)(F)F)c6)n5)c(C(F)F)n4)CC3)cc2)C(=O)N1 (stereo not drawn); 10 to 50 nM

Attention now turns to another entry.
Challenge: So what does the record say about IC50 for CNC(=O)c1ccccc1Nc1cc(Nc2ccc(N3CCC(N4CCN(Cc5ccc(C6CCC(=O)NC6=O)c(F)c5)CC4)CC3)cc2OC)ncc1C(F)(F)F (stereo not drawn) ?
Response given: 500 to 1000 nM

The measured values listed here are drawn from patent EP4678638A1.
